- Tested on: NCI-H460
- assayOverview: Antiproliferative activity against human NCI-H460 cells assessed as cell growth inhibition incubated for 24 hrs by MTS assay
- Format: functional, cell-based
- experimentalParameters: NCI-H460, 24 h
assayEndpoint: pIC50
Quick note: pIC50 means taking -log10 of the concentration in moles per liter.

Complete the entry with pIC50 for CNC(=O)Nc1ccc(-c2nc(N3CC4CCC(C3)O4)c3cnn(C4CCC5(CC4)OCCO5)c3n2)cc1
6.52

###

- testTarget: Serine/threonine-protein kinase ATR (Homo sapiens)
- Sequence (Q13535 whole entry): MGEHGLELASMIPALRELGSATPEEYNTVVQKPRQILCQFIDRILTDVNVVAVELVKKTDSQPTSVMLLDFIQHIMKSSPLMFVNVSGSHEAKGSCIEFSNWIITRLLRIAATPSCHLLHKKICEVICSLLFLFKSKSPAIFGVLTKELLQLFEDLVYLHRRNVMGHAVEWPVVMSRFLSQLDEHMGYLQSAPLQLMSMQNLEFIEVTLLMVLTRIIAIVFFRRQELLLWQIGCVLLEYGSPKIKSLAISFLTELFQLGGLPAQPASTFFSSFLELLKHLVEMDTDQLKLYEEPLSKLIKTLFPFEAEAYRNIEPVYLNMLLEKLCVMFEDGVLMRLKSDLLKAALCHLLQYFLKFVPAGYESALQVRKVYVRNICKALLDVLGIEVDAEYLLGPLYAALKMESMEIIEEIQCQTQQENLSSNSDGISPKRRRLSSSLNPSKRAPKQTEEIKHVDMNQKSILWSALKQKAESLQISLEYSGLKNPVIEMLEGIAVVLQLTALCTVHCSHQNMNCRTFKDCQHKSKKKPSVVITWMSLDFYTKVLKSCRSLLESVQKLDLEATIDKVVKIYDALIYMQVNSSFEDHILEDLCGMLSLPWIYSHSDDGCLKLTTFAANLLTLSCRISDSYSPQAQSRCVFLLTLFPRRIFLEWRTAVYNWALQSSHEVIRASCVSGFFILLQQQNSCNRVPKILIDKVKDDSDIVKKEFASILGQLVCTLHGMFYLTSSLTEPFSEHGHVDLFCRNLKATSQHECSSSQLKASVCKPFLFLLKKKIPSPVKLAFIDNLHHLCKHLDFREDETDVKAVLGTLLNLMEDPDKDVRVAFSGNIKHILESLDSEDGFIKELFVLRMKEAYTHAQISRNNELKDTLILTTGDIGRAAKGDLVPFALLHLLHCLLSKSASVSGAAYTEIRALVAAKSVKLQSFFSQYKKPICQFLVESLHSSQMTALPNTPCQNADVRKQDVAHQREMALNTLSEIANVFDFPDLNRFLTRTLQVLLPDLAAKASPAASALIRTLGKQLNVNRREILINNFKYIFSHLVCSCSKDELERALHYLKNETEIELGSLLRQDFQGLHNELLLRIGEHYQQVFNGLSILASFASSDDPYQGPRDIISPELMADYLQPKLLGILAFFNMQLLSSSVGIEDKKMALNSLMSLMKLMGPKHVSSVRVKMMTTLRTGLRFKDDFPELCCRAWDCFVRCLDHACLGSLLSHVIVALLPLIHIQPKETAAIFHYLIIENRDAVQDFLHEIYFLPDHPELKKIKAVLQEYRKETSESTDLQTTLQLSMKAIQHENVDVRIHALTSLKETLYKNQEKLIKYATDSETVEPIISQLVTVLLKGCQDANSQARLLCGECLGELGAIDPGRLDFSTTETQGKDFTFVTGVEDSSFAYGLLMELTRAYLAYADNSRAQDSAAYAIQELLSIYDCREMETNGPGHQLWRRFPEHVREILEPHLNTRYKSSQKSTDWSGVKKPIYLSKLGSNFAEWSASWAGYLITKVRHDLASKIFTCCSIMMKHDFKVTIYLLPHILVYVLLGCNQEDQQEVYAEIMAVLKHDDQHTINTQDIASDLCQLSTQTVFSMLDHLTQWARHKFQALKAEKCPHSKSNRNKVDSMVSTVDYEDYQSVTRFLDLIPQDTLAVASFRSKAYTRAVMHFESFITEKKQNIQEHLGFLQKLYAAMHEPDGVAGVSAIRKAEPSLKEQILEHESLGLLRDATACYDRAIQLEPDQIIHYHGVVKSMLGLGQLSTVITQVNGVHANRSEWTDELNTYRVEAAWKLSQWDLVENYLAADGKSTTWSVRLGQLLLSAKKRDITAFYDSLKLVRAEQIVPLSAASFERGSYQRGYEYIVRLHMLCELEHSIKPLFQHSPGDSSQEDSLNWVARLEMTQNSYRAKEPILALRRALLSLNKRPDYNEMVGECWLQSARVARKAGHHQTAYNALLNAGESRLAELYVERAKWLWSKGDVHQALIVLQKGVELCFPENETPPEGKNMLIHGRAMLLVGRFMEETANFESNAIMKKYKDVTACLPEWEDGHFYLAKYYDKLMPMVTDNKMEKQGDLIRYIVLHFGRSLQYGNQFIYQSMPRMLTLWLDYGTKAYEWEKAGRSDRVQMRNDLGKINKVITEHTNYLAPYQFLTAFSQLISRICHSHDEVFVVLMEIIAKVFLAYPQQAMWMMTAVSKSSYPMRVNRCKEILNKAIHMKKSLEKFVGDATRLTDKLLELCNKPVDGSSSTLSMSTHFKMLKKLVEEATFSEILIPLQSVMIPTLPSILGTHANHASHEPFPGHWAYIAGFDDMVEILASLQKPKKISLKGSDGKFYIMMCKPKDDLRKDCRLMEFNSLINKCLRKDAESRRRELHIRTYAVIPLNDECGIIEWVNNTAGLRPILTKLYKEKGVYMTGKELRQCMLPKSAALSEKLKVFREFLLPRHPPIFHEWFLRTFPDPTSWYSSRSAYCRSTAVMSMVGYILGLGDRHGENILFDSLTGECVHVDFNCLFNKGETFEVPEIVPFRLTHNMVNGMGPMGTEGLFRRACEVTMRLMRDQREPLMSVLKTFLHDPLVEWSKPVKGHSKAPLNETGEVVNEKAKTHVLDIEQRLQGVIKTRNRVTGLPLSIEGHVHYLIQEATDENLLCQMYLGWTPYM
- assayOverview: Inhibition of ATR (unknown origin) using glutathione S-transferase-p53 as substrate by DELFIA
assayEndpoint: IC50

Quick one: give measured IC50 for CNC(=O)Nc1ccc(-c2nc(N3CC4CCC(C3)O4)c3cnn(C4CCC5(CC4)OCCO5)c3n2)cc1
> 10 µM
